All values here come from PubChem BioAssay (NCI).

# System: MOLT-4 leukemia
# test-details: NCI-60 one-dose screen, 48 h (100 = growth as untreated, 0 = no growth, -100 = all killed)
# experimental-context: 10 µM unless noted
About 83,000 compounds went through this panel and 20% of them were active in at least one assay; those are over-represented in the sample as a whole.
Class true: growth at least 30%. Class false: growth below 30%.

molecule | classification
CN1CCN(c2ccc3cc(-c4nc5ccccc5[nH]4)c(=O)oc3c2)CC1 | true
NC(C(=O)O)C(O)c1ccc(OCc2ccccc2)c(OCc2ccccc2)c1 (stereo unspecified) | true
O=C(Cc1n[nH]c(=O)c2ccccc12)OCc1c(Cl)cccc1Cl | true
CCN(Cc1ccc(CN(CC)C(=O)C(Br)Br)cc1)C(=O)C(Br)Br | true
O=C(Nc1ccc(I)cc1)c1cc([N+](=O)[O-])ccc1O | false
Cc1ccc2c(c1)C(C)Cc1c(ncnc1-n1cnc3ccccc31)N2C (stereo unspecified) | false
C=C1C(=O)O[C@H]2[C@H]1CC/C(COC(=O)NCCc1ccc(OC)cc1)=C\CC[C@@]1(C)O[C@@H]21 | false
CC(=O)OC[Si](C)(C)c1ccccc1 | true
CC(C)C[C@H](NC(=O)Cn1ccc(NCc2ccccc2)cc1=O)B(O)O | false
C=C1C(=O)O[C@H]2[C@H]1CC/C(COC(=O)NCc1ccc(OC)cc1)=C\CC[C@@]1(C)O[C@@H]21 | false
c1ccn2nnnc2c1 | true
O=C1CCCCN1CCCCC#Cc1ccccc1C#Cc1ccccn1 | true
Cn1c(C(N)=O)cc2c1-c1nc(NC3CCCCC3)ncc1CCC2 | true
O=C(CN1CCN(c2cc3c(cc2F)c(=O)c(C(=O)O)cn3C2CC2)CC1)Nc1ccc(C(=O)/C=C/c2ccc(Cl)cc2)cc1 | true
CC(C)(C)c1cc(-c2nc3ccc(N4CCN(CCO)CC4)cc3[nH]2)cc(C(C)(C)C)c1O | true
COc1cc(C(=O)OCCCCCCCCCCC[P+](c2ccccc2)(c2ccccc2)c2ccccc2)ccc1O | false
CC(=O)Nc1ccc(S(=O)(=O)N2C(=O)CCC2C(=O)Nc2ccc(Br)cc2)cc1 (stereo unspecified) | false
CCCCOc1nc2c(C)cccc2cc1C1CNC(=O)c2ccccc2N1 (stereo unspecified) | true
COc1cc(CNC(=O)CCSc2nc3ccccc3c(=O)n2Cc2cc(OC)c(OC)c(OC)c2)cc(OC)c1OC | false
O=C(CCC(=O)OC1CCCC1)OC1CCCC1 | true
CCCCn1c(=O)c(C2CNC(=O)c3ccccc3N2)cc2ccccc21 (stereo unspecified) | true
NC(=O)c1c(NC(=O)c2ccc(OCC3CCCO3)cc2)sc2c1CCCC2 (stereo unspecified) | true
CCCCCC(=O)OCc1ccccc1 | true
Clc1ccc(/C=C/c2nc(N3CCOCC3)c3nc(Cl)c(Cl)cc3n2)cc1 | true
COC(=O)CCCCN=Cc1c(O)c(O)c(C(C)C)c2cc(C)c(-c3c(C)cc4c(C(C)C)c(O)c(O)c(C=NCCCCC(=O)OC)c4c3O)c(O)c12 | false
O=C1CCCCC=C1C[N+](=O)[O-] | true
COc1cc2c(cc1OC)C1(C)N(CC2)C(=O)OC1(C)C (stereo unspecified) | false
CCCCNc1nnc(-c2cc(-c3cc4ccccc4o3)nn2-c2ccccc2)o1 | true
Cc1sc2nc(CSc3nnc(-c4ccco4)o3)[nH]c(=O)c2c1C | true
O=S=Nc1ccc([N+](=O)[O-])cc1 | true
O=[N+]([O-])c1c(S(=O)(=O)O)cc2cc(S(=O)(=O)O)ccc2c1[N+](=O)[O-] | true
Cc1ccc2c(c1)C(=O)C(c1c(-c3[nH]c(=O)c4ccc(C)cc4c3O)c(O)c3ccccc3c1O)=NC2=O | false
O=C(O)c1cn(C2CC2)c2cc(N3CCN(S(=O)(=O)c4ccc(Cl)c(Cl)c4)CC3)c(F)cc2c1=O | false
COc1ccc(-c2nc3sccn3c2-c2ccnc(NCCCNS(=O)(=O)c3ccc(C)cc3)n2)cc1 | false
Cc1nc2scc(-c3ccccc3)n2c(=O)c1CCO | true
O=C1CCCCN1CCCCC#Cc1ccccc1C#Cc1ccc([N+](=O)[O-])cc1 | false
CCOC(=O)C1=C(C)NC(=O)NC1c1ccc(OCC(=O)N/N=C/c2ccc(Cl)cc2)cc1 (stereo unspecified) | true
COc1cc(-c2n[nH]nc2-c2ccc3c(c2)OCCO3)cc(OC)c1OC | false
CC(=O)n1cc([C@H]2CC[C@H](c3cn(C(C)=O)c4ccccc34)c3c2[nH]c2ccccc32)c2ccccc21 | true

====

growth listing for selected molecules.
# Test system: NCI/ADR-RES ovarian
# test-details: NCI-60 one-dose screen, 48 h (100 = growth as untreated, 0 = no growth, -100 = all killed)
# experimental-context: 10 µM unless noted
This is part of a sample that, as a whole, favours compounds with a hit. Of some 83,000 tested, about 20% had one in any assay.

molecule | growth / %
O=S(=O)(NCCCNc1cc(-c2cn(-c3ccccc3)nc2-c2cccc(O)c2)ccn1)c1cccc2ccccc12 | 39.9
Cc1nc2scc(-c3ccccc3)n2c(=O)c1CCO | 112
O=C(COc1ccccc1)N1N=C(c2ccc(Cl)cc2)CC1c1c[nH]c2ccccc12 (stereo unspecified) | 83
COc1cc(OC)cc(-c2n[nH]nc2-c2ccc3c(c2)OCO3)c1 | 3.37
COc1cc(Cn2c(-c3nonc3N)nc3ccccc32)ccc1C | 21.2
CSc1nc(-c2cc3ccccc3o2)cc(-c2ccc(Cl)cc2)c1C#N | 64.3
O=[N+]([O-])c1cc(S(=O)(=O)OCC2CO2)ccc1Cl (stereo unspecified) | 108
CNC(C)=O | 102
O=C(OCCCCOC(=O)n1cnc2ccccc21)n1cnc2ccccc21 | 105
COc1cc(C(=O)CCCl)ccc1O | 94.6
O=C(CSc1nc(-c2ccc(Cl)cc2)cn1-c1ccc(Cl)cc1)c1ccc(Br)cc1 | 70.6
COC(=O)c1ccc2nc(-c3cc4ccccc4n3C)n(CCCCOc3cc4c(cc3OC)C(=O)N3CCC[C@H]3C=N4)c2c1 | 29.5
O=C(Nc1cccc(C(F)(F)F)c1)Nc1ccc(OCc2nnc(-c3ccccc3)o2)c(F)c1 | 37
Nc1c(C(=O)Nc2cccc(C(F)(F)F)c2)sc2nc3c(cc12)CCCCCC3 | 12
Nc1c(C(=O)Nc2cccc([N+](=O)[O-])c2)sc2nc3c(cc12)C(O)CCC3 (stereo unspecified) | 47.8
O=C(CNC1CCCCC1)Nc1ccc(-c2nc3ccccc3s2)cc1 | 89
CNC(=O)c1cc(Oc2ccc3c(c2)sc2nc(-c4ccc(Cl)cc4)cn23)ccn1 | 84.7
CCCCn1c(=O)c(C2CNC(=O)c3ccccc3N2)cc2ccccc21 (stereo unspecified) | 100
CCN(CC)S(=O)(=O)c1ccc2[nH]c(=O)cc(C(=O)Nc3ccc(OC)cc3OC)c2c1 | 99.6
COc1ccc(C2=NN(c3ccc(S(N)(=O)=O)cc3)C(c3cn(-c4ccccc4)nc3-c3ccc(Cl)cc3)C2)cc1 (stereo unspecified) | 90.1
CCCCOc1nc2c(C)cccc2cc1C1CNC(=O)c2ccccc2N1 (stereo unspecified) | 51.3

====

# System: IGROV1 ovarian
# test-details: NCI-60 one-dose screen, 48 h (100 = growth as untreated, 0 = no growth, -100 = all killed)
# experimental-context: 10 µM unless noted
The panel holds about 83,000 compounds, 20% with a hit somewhere; the sample as a whole holds those more often. Calls of active or inactive are those of the source. How the source made its calls: active means growth percent below 10; inactive means the rest.
# growth listing for each entry below
quantity: growth

compound | endpoint-result
Cc1ccc2c(c1)ncn2-c1ncnc2c1CC(C)c1ccccc1N2C (stereo not drawn) | 16.3% (inactive)
FC(F)(F)c1cccc(-n2nnc3cnc(Nc4ccc(N5CCCCC5)cc4)nc32)c1 | 88.8% (inactive)
CCN1C(=O)N(CC)C2C1NN=c1s/c(=C\c3ccccn3)c(=O)n12 (stereo not drawn) | 43.7% (inactive)
CCCCCCCCCCC/C=C\C[C@H](O)C/C=C1/C(=O)C=C[C@@H]1C/C=C\CCCC(=O)OC | -15.9% (active)
Nc1ccc(S(=O)(=O)c2ccc(Cl)cc2)cc1 | 97.3% (inactive)
COc1ccc(/C=C/C(=O)OCC(=O)NNC(=O)c2ccccc2)cc1OC | 87.8% (inactive)
CN1C(=O)[C@H]2c3c1cccc3[C@@]13NC(=O)O[C@H]1[C@H](CCC3(C)C)C2(C)C | 107% (inactive)
O=c1oc2c([nH]c3ccc4ccccc4c32)c2ccccc12 | 118% (inactive)
CC/C=C\C/C=C\C[C@H]1C/C=C2/C(=O)C=C[C@H]2C/C=C\CCC(=O)O1 | 3.81% (active)
Cc1ccc(S(=O)(=O)OC2COCOC2C(OS(=O)(=O)c2ccc(C)cc2)C2OCOCC2OS(=O)(=O)c2ccc(C)cc2)cc1 (stereo not drawn) | 110% (inactive)
O=C(CNc1ccc(Cl)cc1)Nc1ccc(-c2nc3ccccc3s2)cc1 | 34.3% (inactive)
COc1cccc2cc(-c3cc4ccccc4[nH]3)c(=NC(=O)c3ccc(Cl)cc3)oc12 | 53.7% (inactive)
O=c1[nH]c2ccccc2cc1-c1nnc(Cc2ccccc2)o1 | 66% (inactive)
CC[C@H](C)[C@@H]1NC(=O)[C@H]([C@@H](C)O)NC(=O)C(Cc2ccccc2)NC(=O)[C@@H]2CCCN2C(=O)C(C(C)C)NC(=O)C(Cc2ccccc2)NC(=O)CNC(=O)[C@@H]2CCCN2C1=O (stereo partly drawn) | 63.6% (inactive)
C/C(=C\c1csc(C)n1)[C@@H]1C[C@@H]2O[C@]2(C)CCC[C@H](C)[C@H](O)[C@@H](C)C(=O)C(C)(C)[C@@H](O)CC(=O)N1 | -85.5% (active)
CCN1C(=O)N(CC)C2C1NN=c1s/c(=C3\C(=O)N(C4CCCC4)c4ccccc43)c(=O)n12 (stereo not drawn) | 31.9% (inactive)
COc1ccc2c(c1)NC(=O)CN2c1nc(C)nc2ccccc12 | 18.8% (inactive)
Cn1c(=O)c2c(nc3n2CCN(CCc2ccc(OCCN4CCOCC4)cc2)C3)n(C)c1=O | 108% (inactive)
